Data origin, for the record: patent US20160102052A1

tested on: Exophiala dermatitidis CA01; experiment: Broth microdilution chequerboard analysis of Lynovex (NM001) in combination with clinical antifungals; assay type: cell-based; conditions: GEOMEAN; antifungal with Lynovex (NM001); MIC50, 96 h; <0.5 Synergy, 0.5-1 Additive, >1 Indifference
measured-quantity: FICI

Answered cases to consult:
1. C[C@@H]1[C@H](O)[C@@H](C)/C=C/C=C/C=C/C=C/C=C/C=C/C=C/[C@H](O[C@@H]2O[C@H](C)[C@@H](O)[C@H](N)[C@@H]2O)C[C@@H]2O[C@](O)(C[C@@H](O)C[C@@H](O)[C@H](O)CC[C@@H](O)C[C@@H](O)CC(=O)O[C@H]1C)C[C@H](O)[C@H]2C(=O)O: 0.63 (2)
2. CC[C@H](C)C[C@H](C)CCCCCCCCC(=O)N[C@H]1C[C@@H](O)[C@@H](NCCN)NC(=O)[C@@H]2[C@@H](O)CCN2C(=O)[C@H]([C@H](O)CCN)NC(=O)[C@H]([C@H](O)[C@@H](O)c2ccc(O)cc2)NC(=O)[C@@H]2C[C@@H](O)CN2C(=O)[C@H]([C@@H](C)O)NC1=O: 0.48 (4)
3. CCC(C)n1ncn(-c2ccc(N3CCN(c4ccc(OCC5COC(Cn6cncn6)(c6ccc(Cl)cc6Cl)O5)cc4)CC3)cc2)c1=O (stereo not shown): 0.27 (7)

Turning now to a further compound:
Just so you know, measured FICI for "OC(Cn1cncn1)(Cn1cncn1)c1ccc(F)cc1F" came out at 0.44 (6)
